This section presents molecules with their documented log10(IC50) values.
Target: 5-hydroxytryptamine receptor 1A (Rattus norvegicus)
Sequence (P19327 whole entry): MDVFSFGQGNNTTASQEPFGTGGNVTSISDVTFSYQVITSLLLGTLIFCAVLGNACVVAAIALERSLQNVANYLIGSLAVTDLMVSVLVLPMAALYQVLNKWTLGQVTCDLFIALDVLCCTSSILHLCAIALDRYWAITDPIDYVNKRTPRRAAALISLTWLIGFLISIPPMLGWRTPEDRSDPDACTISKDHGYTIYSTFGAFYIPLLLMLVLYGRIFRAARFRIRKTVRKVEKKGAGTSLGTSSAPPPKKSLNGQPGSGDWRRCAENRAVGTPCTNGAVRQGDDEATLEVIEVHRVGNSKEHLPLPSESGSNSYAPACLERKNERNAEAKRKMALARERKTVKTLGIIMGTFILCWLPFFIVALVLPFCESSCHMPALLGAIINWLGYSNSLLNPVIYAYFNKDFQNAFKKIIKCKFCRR
In our notation, the value equals log10 of IC50 in nM.

See these solved cases before continuing.
- STRUCTURE NOTATION: "N#Cc1ccc2[nH]cc(C3=CCNCC3)c2c1"
  log10(IC50): 1.51
- STRUCTURE NOTATION: "FC(F)(F)c1cccc(N2CCNCC2)c1"
  log10(IC50): 2.46
- STRUCTURE NOTATION: "Oc1ccc2[nH]cc(C3=CCNCC3)c2c1"
  log10(IC50): 1.48
- STRUCTURE NOTATION: "Clc1ccc2[nH]cc(C3=CCNCC3)c2c1"
  log10(IC50): 1.41
- STRUCTURE NOTATION: "O=[N+]([O-])c1ccc2[nH]cc(C3=CCNCC3)c2c1"
  log10(IC50): 1.56

# input for lookup
Challenge: Field request: log10(IC50) | item: `Fc1ccc2[nH]cc(C3=CCNCC3)c2c1`
Response given: 1.81

* * *

molecular target: 5-hydroxytryptamine receptor 1D (Cavia porcellus, UniProt Q60484); assay: Inhibition of Forskolin-stimulated adenylate cyclase activity against 5-hydroxytryptamine 1D receptor of guinea pig substantia nigra
Sequence (Q60484 whole entry): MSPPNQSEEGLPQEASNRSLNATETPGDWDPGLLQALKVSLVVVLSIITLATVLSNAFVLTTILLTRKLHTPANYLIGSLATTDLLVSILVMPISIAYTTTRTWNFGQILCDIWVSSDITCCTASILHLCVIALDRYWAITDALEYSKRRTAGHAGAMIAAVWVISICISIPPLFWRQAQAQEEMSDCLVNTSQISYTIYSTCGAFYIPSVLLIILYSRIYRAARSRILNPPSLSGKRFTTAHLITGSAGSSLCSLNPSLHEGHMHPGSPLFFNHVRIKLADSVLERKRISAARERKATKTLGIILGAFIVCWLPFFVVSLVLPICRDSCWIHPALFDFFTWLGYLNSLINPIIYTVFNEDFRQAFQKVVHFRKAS
PROPERTY MEASURED: pEC50
Keep it numeric: pEC50 is minus log10 of the concentration in mol/L.

Challenge: Field request: pEC50 | item: `NCCc1c[nH]c2ccc(O)cc12`
Response given: 7.80

* * *

This section presents compounds with their documented pIC50 values.
target: 5-hydroxytryptamine receptor 1B (Rattus norvegicus, UniProt P28564); assay: Inhibitory activity against 5-hydroxytryptamine 1B receptor of rat cortex using [3H]5-HT
Sequence (P28564 whole entry): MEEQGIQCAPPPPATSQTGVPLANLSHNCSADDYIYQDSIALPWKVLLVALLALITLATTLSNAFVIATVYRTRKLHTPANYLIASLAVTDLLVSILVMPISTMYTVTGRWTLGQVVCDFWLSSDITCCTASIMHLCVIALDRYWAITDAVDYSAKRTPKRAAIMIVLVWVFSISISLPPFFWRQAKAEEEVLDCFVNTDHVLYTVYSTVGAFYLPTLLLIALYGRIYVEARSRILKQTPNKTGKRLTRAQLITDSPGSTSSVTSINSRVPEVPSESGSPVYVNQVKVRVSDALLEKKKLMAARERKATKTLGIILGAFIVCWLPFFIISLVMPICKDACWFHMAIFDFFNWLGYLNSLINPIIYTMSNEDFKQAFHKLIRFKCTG
Keep it numeric: pIC50 is minus log10 of the concentration in mol/L.

See these solved cases before continuing.
- STRUCTURE NOTATION: "Brc1ccc2[nH]cc(C3=CCNCC3)c2c1"
  pIC50: 8.49
- STRUCTURE NOTATION: "CN1CCN(c2nc3cc(C(F)(F)F)ccc3n3cccc23)CC1"
  pIC50: 6.82
- STRUCTURE NOTATION: "COc1ccc2[nH]cc(C3=CCNCC3)c2c1"
  pIC50: 8.70
- STRUCTURE NOTATION: "Clc1ccc2[nH]cc(C3=CCNCC3)c2c1"
  pIC50: 8.48
- STRUCTURE NOTATION: "Oc1ccc2[nH]cc(C3=CCNCC3)c2n1"
  pIC50: 7.82
- STRUCTURE NOTATION: "FC(F)(F)c1cccc(N2CCNCC2)c1"
  pIC50: 7.57
- STRUCTURE NOTATION: "N#Cc1ccc2[nH]cc(C3=CCNCC3)c2c1"
  pIC50: 9.10
- STRUCTURE NOTATION: "O=[N+]([O-])c1ccc2[nH]cc(C3=CCNCC3)c2c1"
  pIC50: 8.46

Challenge: Field request: pIC50 | item: `FC(F)(F)c1ccc2c(c1)nc(N1CCNCC1)c1cccn12`
Response given: 7.68

Challenge: What about this compound? `Fc1ccc2[nH]cc(C3=CCNCC3)c2c1`
Response given: 8.72

Challenge: What about this compound? `Oc1ccc2[nH]cc(C3=CCNCC3)c2c1`
Response given: 8.92

* * *

target: 5-hydroxytryptamine receptor 1B (Rattus norvegicus); assay: Inhibitory activity against 5-hydroxytryptamine 1B receptor of rat cortex using [3H]5-HT as the radioligand.
PROPERTY MEASURED: pIC50
Keep it numeric: pIC50 is minus log10 of the concentration in mol/L.

Challenge: Field request: pIC50 | item: `C1=C(c2c[nH]c3ccccc23)CCNC1`
Response given: 8.43

* * *

molecular target: Serotonin 2 (5-HT2) receptor (Rattus norvegicus, UniProt P30994+P08909+P14842); test: Compound was evaluated for its inhibitory activity against 5-hydroxytryptamine 2 receptor of rat anterior cortex using [3H]ketanserin as the radioligand
PROPERTY MEASURED: IC50 (µM)
Dear colleague, please return just the value in µM, with no unit written.

- STRUCTURE NOTATION: "CN1CCN(c2nc3cc(C(F)(F)F)ccc3n3cccc23)CC1"
  IC50 [µM]: 6.8

Challenge: Field request: IC50 | item: `FC(F)(F)c1cccc(N2CCNCC2)c1`
Response given: 0.57

* * *

Target: 5-hydroxytryptamine receptor 1A (Rattus norvegicus)
Sequence (P19327 whole entry): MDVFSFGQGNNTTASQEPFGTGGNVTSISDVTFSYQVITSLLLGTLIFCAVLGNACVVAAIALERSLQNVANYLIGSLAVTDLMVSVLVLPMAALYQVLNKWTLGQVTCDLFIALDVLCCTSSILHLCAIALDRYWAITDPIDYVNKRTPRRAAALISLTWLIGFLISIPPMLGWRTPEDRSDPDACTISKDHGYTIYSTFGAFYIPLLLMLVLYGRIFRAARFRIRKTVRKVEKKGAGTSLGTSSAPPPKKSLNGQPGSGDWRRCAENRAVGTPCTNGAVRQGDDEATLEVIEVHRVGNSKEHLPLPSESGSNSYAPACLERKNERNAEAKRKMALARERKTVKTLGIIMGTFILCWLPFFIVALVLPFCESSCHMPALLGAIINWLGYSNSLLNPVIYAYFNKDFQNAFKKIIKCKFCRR
This section presents compounds with their documented IC50 values.
Dear colleague, please return just the value in µM, with no unit written.

Challenge: Field request: IC50 | item: `CN1CCN(c2nc3cc(C(F)(F)F)ccc3n3cccc23)CC1`
Response given: 0.019

* * *

Assay system 5-hydroxytryptamine receptor 1A (Rattus norvegicus, UniProt P19327); read-out recorded as IC50.

See these solved cases before continuing.
- STRUCTURE NOTATION: "Oc1ccc2[nH]cc(C3=CCNCC3)c2n1"
  READOUT VALUE: "3 µM"
- STRUCTURE NOTATION: "C1=C(c2c[nH]c3ccccc23)CCNC1"
  READOUT VALUE: "0.14 µM"
- STRUCTURE NOTATION: "FC(F)(F)c1ccc2c(c1)nc(N1CCNCC1)c1cccn12"
  READOUT VALUE: "0.037 µM"

# input for lookup
Challenge: Field request: IC50 | item: `Brc1ccc2[nH]cc(C3=CCNCC3)c2c1`
Response given: 0.013 µM
